For each entry below, report its LC retention time value.
Assay: RP, Waters ACQUITY UPLC BEH C18, 100 × 1 mm, 1.7 µm, 50 °C, 0.3 mL/min, estimated dead time 0.17 min; A: water + 10 mM ammonium bicarbonate; B: 10% water + 90% methanol + 10 mM ammonium bicarbonate; gradient (min/%B) 0/0 15/100 21/100 22/0 30/0
Details: stereoisomer not certain
One number for each entry, in min.

O=C(O)COCCN1CCN(C(c2ccccc2)c2ccc(Cl)cc2)CC1 (stereo not given) :: 14.8

Provide LC retention time for all items below, preserving their order.
1. CCCCCCCCCOC(=O)c1ccccc1C(=O)OCCCCCCCCC [Dinonylphthalate]
2. CCC(C)Nc1nc(N)nc(Cl)n1 (stereo not given)
3. O=c1[nH]c2ccccc2s1 [2-hydroxybenzothiazole]
4. c1ccc(C2CN3CCSC3=N2)cc1 (stereo not given)
5. CCNc1nc(NCC)nc(OC)n1

[20.5, 11.5, 10.5, 11.8, 11.6]

Provide LC retention time for all items below, preserving their order.
1. CCCCOC(=O)C(C)Oc1ccc(Oc2ccc(C(F)(F)F)cn2)cc1 (stereo not given)
2. Cc1cccc2sc3nncn3c12
3. CCCCCCCCCCCC(=O)NCC(C)O (stereo not given) [Lauric isopropanolamide]
4. CCOP(=O)(NC(C)C)Oc1ccc(S(C)(=O)=O)c(C)c1 (stereo not given)
5. CC1(C)CCC2(C(=O)O)CCC3(C)C(=CCC4C5(C)CCC(O)C(C)(CO)C5CCC43C)C2C1 (stereo not given)

17.1
10.4
17.1
12.4
15.9
